// provenance: ChEMBL document CHEMBL1136596

Study system: Human immunodeficiency virus type 1 integrase (Human immunodeficiency virus 1, UniProt Q7ZJM1)
Sequence (Q7ZJM1 whole entry): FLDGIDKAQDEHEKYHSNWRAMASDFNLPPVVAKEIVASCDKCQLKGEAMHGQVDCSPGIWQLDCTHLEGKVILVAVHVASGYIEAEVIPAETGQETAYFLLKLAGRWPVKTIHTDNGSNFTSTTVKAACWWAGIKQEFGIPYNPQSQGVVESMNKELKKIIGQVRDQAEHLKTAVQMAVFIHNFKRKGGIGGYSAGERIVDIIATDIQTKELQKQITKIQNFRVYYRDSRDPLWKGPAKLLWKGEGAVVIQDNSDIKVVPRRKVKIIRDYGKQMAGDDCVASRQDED
Procedure text: Inhibition of HIV-1 integrase in coupled transfer assay
pIC50: −log10 of the molar value.
Readout type: pIC50

// known answers, use as guide
{"Compound": "CC(=O)Oc1cc(OC(C)=O)c2c(OC(C)=O)c3c(cc2c1-c1c(OC(C)=O)cc(OC(C)=O)c2c(OC(C)=O)c4c(cc12)OC(C)C(C)C4=O)OC(C)C(C)C3=O (stereo not given)", "pIC50": 4.30}
{"Compound": "COc1cc(OC)c2c(OC)c3c(cc2c1-c1c(OC)cc(OC)c2c(OC)c4c(cc12)OC(C)C(C)C4=O)OC(C)C(C)C3=O (stereo not given)", "pIC50": 4.22}
{"Compound": "COc1cc(O)c2c(OC)c3c(cc2c1-c1c(OC)cc(OC)c2c(OC)c4c(cc12)OC(C)C(C)C4=O)OC(C)C(C)C3=O (stereo not given)", "pIC50": 4.40}
{"Compound": "CC1Oc2cc3c(-c4c(O)cc(O)c5c(O)c6c(cc45)OC(C)C(C)C6=O)c(O)cc(O)c3c(O)c2C(=O)C1C (stereo in doubt; form 2)", "pIC50": 5.70}
{"Compound": "CC1Oc2cc3c(-c4c(O)cc(O)c5c(O)c6c(cc45)OC(C)C(C)C6=O)c(O)cc(O)c3c(O)c2C(=O)C1C (stereo in doubt; form 1)", "pIC50": 5.70}

A = COc1cc(O)c2c(O)c3c(cc2c1-c1c(OC)cc(OC)c2c(OC)c4c(cc12)OC(C)C(C)C4=O)OC(C)C(C)C3=O (stereo in doubt; 9e)
B = COc1cc(O)c2c(O)c3c(cc2c1-c1c(OC)cc(OC)c2c(OC)c4c(cc12)OC(C)C(C)C4=O)OC(C)C(C)C3=O (stereo in doubt; 9d)
C = C[C@@H]1Oc2cc3c(-c4c(O)cc(O)c5c(O)c6c(cc45)O[C@H](C)[C@@H](C)C(=O)O6)c(O)cc(O)c3c(O)c2C(=O)[C@@H]1C
D = Cc1oc2cc3c(-c4c(O)cc(O)c5c(O)c6c(cc45)O[C@H](C)[C@H](C)C6=O)c(O)cc(O)c3c(O)c2c(=O)c1C
E = COc1cc(O)c2c(OC)c3c(cc2c1-c1c(O)cc(OC)c2c(OC)c4c(cc12)OC(C)C(C)C4=O)OC(C)C(C)C3=O (stereo not given)
Q: Task for the reader: rank each entry by its pIC50, from the minimum upward. Use the labels to give the requested order.
Ans: B, A, E, C, D
(B: 4.10, A: 4.40, E: 5.10, C: 5.52, D: 6.00)

* * *

Each entry below lists one item and its recorded pIC50 value.
Study system: Human immunodeficiency virus type 1 integrase (Human immunodeficiency virus 1, UniProt Q7ZJM1)
Procedure text: Inhibition of HIV-1 integrase in strand transfer assay
Just the number, please; pIC50 means minus log10 of the concentration in mol/L.

{"Molecule": "CC1Oc2cc3c(-c4c(O)cc(O)c5c(O)c6c(cc45)OC(C)C(C)C6=O)c(O)cc(O)c3c(O)c2C(=O)C1C (stereo in doubt; form 2)", "Readout type": "pIC50", "Test value": 4.92}

Query molecule follows.
Q: GET /values?readout=pIC50&item= C[C@@H]1Oc2cc3c(-c4c(O)cc(O)c5c(O)c6c(cc45)O[C@H](C)[C@@H](C)C(=O)O6)c(O)cc(O)c3c(O)c2C(=O)[C@@H]1C
Ans: 5.05

* * *

Listed here: items and their measured IC50.
Study system: UniProt:Q7ZJM1
Procedure text: Inhibition of HIV-1 integrase in strand transfer assay

Completed entries (count: 6):
{"Compound": "COc1cc(O)c2c(OC)c3c(cc2c1-c1c(OC)cc(OC)c2c(OC)c4c(cc12)OC(C)C(C)C4=O)OC(C)C(C)C3=O (configuration not stated)", "IC50": "> 100 µM"}
{"Compound": "COc1cc(O)c2c(OC)c3c(cc2c1-c1c(O)cc(OC)c2c(OC)c4c(cc12)OC(C)C(C)C4=O)OC(C)C(C)C3=O (configuration not stated)", "IC50": "> 100 µM"}
{"Compound": "Cc1oc2cc3c(-c4c(O)cc(O)c5c(O)c6c(cc45)O[C@H](C)[C@H](C)C6=O)c(O)cc(O)c3c(O)c2c(=O)c1C", "IC50": "4 µM"}
{"Compound": "COc1cc(OC)c2c(OC)c3c(cc2c1-c1c(OC)cc(OC)c2c(OC)c4c(cc12)OC(C)C(C)C4=O)OC(C)C(C)C3=O (configuration not stated)", "IC50": "> 100 µM"}
{"Compound": "CC1Oc2cc3c(-c4c(O)cc(O)c5c(O)c6c(cc45)OC(C)C(C)C6=O)c(O)cc(O)c3c(O)c2C(=O)C1C (stereo in doubt; form 1)", "IC50": "12 µM"}
{"Compound": "CC(=O)Oc1cc(OC(C)=O)c2c(OC(C)=O)c3c(cc2c1-c1c(OC(C)=O)cc(OC(C)=O)c2c(OC(C)=O)c4c(cc12)OC(C)C(C)C4=O)OC(C)C(C)C3=O (configuration not stated)", "IC50": "> 100 µM"}

Q: What IC50 value was documented for this compound, COc1cc(O)c2c(O)c3c(cc2c1-c1c(OC)cc(OC)c2c(OC)c4c(cc12)OC(C)C(C)C4=O)OC(C)C(C)C3=O (stereo in doubt; 9d) ?
Ans: > 100 µM
